target: T1, recombinant human IL-6 (human, UniProt P05231 30-212, labeled with radioactive iodine); assay: radioiodinated IL-6 on peptide array
T1 construct: Labeled probe in solution, added to wells that carry the synthetic peptides; also called IL-6 ligand; Interleukin-6
Each entry below carries its reported Counts/minute bound.

- BINDER: "LTNDRYLATLTVRNLVGKSDAAVL [Peptide E40]"
  Counts/minute bound, counts/minute: 4800
- BINDER: "CMKEDGKGYWSDWSEEASGITYED [Peptide E31]"
  Counts/minute bound, counts/minute: 1730
- BINDER: "VSAADAFGPGTEGQVERFETVGME [Peptide E88]"
  Counts/minute bound, counts/minute: 1090
- BINDER: "FQATHPVMDLKAFPKDNMLWVEWT [Peptide E43]"
  Counts/minute bound, counts/minute: 1300
- BINDER: "TYEDRPSKAPSFWYKIDPSHTQGY [Peptide E33]"
  Counts/minute bound, counts/minute: 1220
- BINDER: "ESTQPLLDSEERPEDLQLVDHVDG [Peptide E79]"
  Counts/minute bound, counts/minute: 1380
